Entries and their melting point values follow.

COMPOUND	melting point (°C)
CCOc1ccc(-c2nnc3n2NC(c2ccccc2O)S3)cc1 (configuration not stated)	177
CCC(=O)Cl	-94
Brc1ccc(OCc2ccccc2)cc1	62
COc1c(CC(O)C(C)C)c(=O)n(C)c2c(OC)cccc12 (configuration not stated)	86.5
COC(=O)NC=Cc1ccc(C=CNC(=O)OC)cc1	360

* * *

Think of 100 °C as a floor: if melting point stands on it or above, it is y; beneath it, n.

MOLECULE	QUALITATIVE LABEL
O=C(CCCl)c1ccc(Br)cc1	n
CCc1cc2ccccc2c2ccccc12	n
CC(=O)OC1CC2(O)C(C)C(=O)C3(C(O)CC4C(C)(C)CCC(OC(C)=O)C4(C)C13)C2O (stereo not drawn)	y
CCCOc1ccc(O)cc1	n
NNC(=S)Nc1cccc(Cl)c1	y
CC(C)OC(=O)C(O)(c1ccc(Cl)cc1)c1ccc(Cl)cc1	n
CC(=O)OC1CC[C@H]2[C@@H]3CC[C@@H]4C(Br)C(=O)CC[C@]4(C)[C@H]3CC[C@]12C (stereo partly drawn)	y
COC(=O)c1ccc2cc(OC)ccc2c1	y
O=C(NC(=O)c1c(F)cccc1F)Nc1cc(Cl)c(OC(F)(F)C(F)F)c(Cl)c1	y
O=C(c1ccc(Cl)cc1)c1noc(-c2ccc3ccccc3c2)c1S(=O)(=O)c1ccccc1	y
C=CC1(C)CCC2C(=CCC3C(C)(C(=O)O)CCCC23C)C1 (stereo not drawn)	y
Cn1cncc1C=O	n
CCOC(=O)C(SP(=S)(OC)OC)c1ccccc1 (stereo not drawn)	n
COc1cccc2c1C(=O)c1c(O)c3c(c(O)c1C2=O)CC(O)(C(=O)CO)CC3OC1CC(N)C(O)C(C)O1 (stereo not drawn)	y
O=C(O)C1CCCCC1C(=O)OCCO (stereo not drawn)	n
O=C(C=Cc1ccc([N+](=O)[O-])cc1)c1ccc(Cl)cc1	y
FC(F)(F)c1ccc(-c2nnn[nH]2)cc1	y
CCCCCCCCCCOC(C)=O	n
BrCC(Br)c1cccc(C(Br)CBr)c1 (stereo not drawn)	n
O=[N+]([O-])c1ccccc1C(F)(F)F	n
FC(F)(F)c1nnc(S)n1/N=C/c1ccc2c(c1)OCO2	y
Cc1nc(/C(C#N)=N/Nc2cccc(C(F)(F)F)c2)sc1/N=N/c1ccc(F)cc1	y
Cc1c(I)ccnc1Cl	y
CCOC(=O)C1=C(C)NC(C)=C(C(=O)OCC)C1c1cccc(OC)c1O	y
O=C(O)C(Cc1ccccc1)C(=O)O	y
